# system_tested: RSV prefusion F (preF), DS-Cav1 stabilized trimer, subtype A (Respiratory Syncytial Virus, subtype A, UniProt P03420 26-513)
# test: BLI, apparent IgG KD (Table 9A)
attribute_measured: Kd
A complete answer gives the number followed by the unit.

binder="ADI-20975 (antibody, V domains shown) VH: QVQLVESGTHVKKPGASVKVSCEASDDTFNNKGIVWVRQAPGQGLEWMGWIRPNNGNTKYAQKFQGRVTMTTDASTNTAYMELRSLRSGDTAVYYCAREQFKWNDFYFDYWGQGILVTVSS VL: SYELMQPPSVSVAPGQTATITCGGSNIGSETVHWYQQKPGQAPVLVVHDDTDRPSGIPERFSGSNSGNTATLTISGVEAGDEADFYCQVRDSRTDDVVFGGGTKLTVL" result="92 pM"
binder="ADI-41259 (antibody, V domains shown) VH: QVQLVESGGRLVKPGGSLRLSCAASGFTFSDFYMSWIRQAPGKGLEWVSYISSSGDDPNYADSVKGRFTISRDNSKNSLYLQMNSLRAEDTAVYYCARDEVGWNNLDYYFGMDVWGQGTTVTVSS VL: DIVMTQSPLSLPVTLGQPASISCRSSQSLVHSDGNTYLSWFHQRPGQSPRRLIYKVSNRDSGVPNRFSGGGSGTDFTLKISRVEAEDVGFFYCMQGTHWQKTFGQGTKVEIK" result="340 pM"

Kindly review the next binder as well.
Lab book: Kd of ADI-36669 (antibody, V domains shown) VH: EVQLVQSGAEVKKPGASVRVYCKASGYTFTTYYIHWVRQAPGQGLEWMGMINPSGGTTSYAQKFQGRLTMTGDTSTSTVYMELNYLRSEDTAVYYCTRDFIYFYGSGDGFDYWGQGTLVTVSS VL: EIVMTQSPSAMSASVGDRVTITCRASQGISNYLAWFQQKPGKVPKRLIYAASSLQSGVPSRFSGSGSGTEFTLTITSLQPEDFATYYCLQHNSYPFTFGPGTKVEIK noted as 1100 pM
